The values you see were collected from patent US20050202033A1.

# Study system: recombinant human or murine heat shock protein 70 (hsp70) (human or murine), P0DMV8
# Sequence (P0DMV8 whole entry): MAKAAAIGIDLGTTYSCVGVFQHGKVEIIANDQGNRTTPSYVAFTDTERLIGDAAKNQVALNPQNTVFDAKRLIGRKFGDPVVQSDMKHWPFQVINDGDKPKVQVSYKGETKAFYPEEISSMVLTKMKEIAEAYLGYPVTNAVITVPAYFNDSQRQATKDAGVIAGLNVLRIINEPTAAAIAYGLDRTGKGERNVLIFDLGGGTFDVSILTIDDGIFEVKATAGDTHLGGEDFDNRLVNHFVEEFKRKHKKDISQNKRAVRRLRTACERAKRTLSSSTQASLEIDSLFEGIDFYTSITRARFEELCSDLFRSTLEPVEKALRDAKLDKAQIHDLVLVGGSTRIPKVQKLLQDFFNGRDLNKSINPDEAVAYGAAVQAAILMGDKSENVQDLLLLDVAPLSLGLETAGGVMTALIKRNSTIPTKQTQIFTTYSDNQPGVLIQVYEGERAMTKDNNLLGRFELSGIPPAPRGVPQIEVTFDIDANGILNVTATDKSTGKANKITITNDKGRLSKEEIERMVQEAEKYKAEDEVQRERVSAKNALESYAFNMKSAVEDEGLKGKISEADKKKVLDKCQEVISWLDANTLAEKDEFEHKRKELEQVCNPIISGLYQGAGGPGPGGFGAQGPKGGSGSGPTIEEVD
# Experiment summary: on hsp70
Measured Kd by item
Use nM as the unit, but write only the number.

Below, 6 binders whose answers are already recorded.
{"Binder": "AIIRILQQL (modifications not checked) [… (HIV Vpr: 59-67)]", "Measured result": 93000}
{"Binder": "VIYQYMDDL (modifications not checked) [… (HIV Pol: 334-342)]", "Measured result": 91000}
{"Binder": "SLFNTVATLGSGNLLRLTGW (modifications not checked)", "Measured result": 1900}
{"Binder": "ALKHRAYELGSGNLLRLTGW (modifications not checked)", "Measured result": 1100}
{"Binder": "VLDVGDAYFSV (modifications not checked) [… (HIV Pol: 263-273)]", "Measured result": 110000}
{"Binder": "VLDVGDAYFSVGSGNLLRLTGW (modifications not checked)", "Measured result": 2000}

Note: attention shifts to another entry.
Q: Form field: reported Kd of NLLRLTGWGSGSIINFEKL (modifications not checked)
Ans: 1600
